- STUDY_TARGET: T1, recombinant cynomolgus CFD, His-tagged (cynomolgus)
- T1 construct: also called rcyCFD-His; recombinant Cyno-CFD
- TEST_DESCRIPTION: SPR MX96
RECORDED_METRIC: pKd
Please express pKd as -log10 of the molar concentration.

{"BINDER": "KCD128 (antibody, V domains shown) VH: QVQLQQPGAELVRPESSVKLSCKASGYTFTSYWMDWVMQRPGQGLEWIGNIYPSGSETHYNQKFKDKATLTVDKSSTTAYMQLSSLTFEDSAVYYCARSGFIGSRYLYYFDYWGQGTTLTVSS VL: DIVMTQSHKFMSTSVGDRVTITCKASQDVSNAVAWYQLKPGQSPKLLIYSASYRYTGVPDRFTGSGSGTDFTFTISSVQAADLAVYYCQQHYITPYTFGGGTKLEIK", "RESULT_NUMBER": 8.48}

Q: Please list pKd recorded for the binder KCD129 (antibody, V domains shown) VH: EVQLVESGGGLVQPKGSLKLSCAASGFSFNTYAMNWVRQAPGKGLEWVARIRSKSNNYATYYADSVKDRFTISRDDSESMVYLQMNNLKTEDTAMYYCVRHGYYWYFDVWGTGTTVTVSS VL: DVLMTQTPLSLPVSLGDQASISCRSSQSIVHSDGNTYLEWYLQKPGQSPKLLIYRVSNRFSGVPDRFSGSGSGTDFTLKISRMEAEDLGVYYCFQGSHVPYTFGGGTKLEIK
Result: 8.22

Cited source: patent US20180334496A1
